Values compiled from ChEMBL document CHEMBL1201862.

# System: HCT-116
# methodNotes: NCI tumour cell line growth inhibition, 48 h
Active and inactive are the calls of the source. Rule as the data show it: active = GI50 up to about 1.1 µM and inactive = higher.
resultType: GI50

{"molecule": "COC(=O)c1c(C#C[Si](C)(C)C)c(C#C[Si](C)(C)C)c(C#C[Si](C)(C)C)c(C#C[Si](C)(C)C)c1C(=O)OC", "GI50": "> 100 µM (inactive)"}
{"molecule": "CCOC(=O)C1=C(Nc2cccc3ccccc23)OC/C1=N\\NC(=O)c1ccccc1O", "GI50": "19.1 µM (inactive)"}
{"molecule": "CC(=O)OC12OC(C)(C3C(=O)N(c4ccccc4)C(=O)C31)N(c1ccccc1)C2=O (stereo not given)", "GI50": "> 100 µM (inactive)"}
{"molecule": "CCOC(=O)N1CCN(C(=O)Nc2cccc3ccccc23)CC1", "GI50": "> 10 µM (inactive)"}
{"molecule": "COc1cc(CC(=O)c2ccc3c(c2)OCO3)cc(OC)c1OC", "GI50": "> 100 µM (inactive)"}

Recorded GI50 for CN(c1ccccc1Cl)S(=O)(=O)c1ccccc1[N+](=O)[O-] , please?
33.6 µM (inactive)

Value lookup for GI50; key = ClCc1c(-c2ccccc2)nn(-c2ccccc2)c1CCl
8.09 µM (inactive)

Please report the recorded GI50 for Cc1c2c3ccccc3nc-2n(C)c2ccccc12 .
0.495 µM (active)

For the molecule shown here, CCN(CC)c1ccc(/C=C2\CCc3ccc([N+](=O)[O-])cc3C2=O)cc1 , give the reported GI50.
0.199 µM (active)

What does the record list as GI50 for COc1cc2c[n+](C)c3c4cc5c(cc4ccc3c2cc1OC)OCO5 [NITIDINE CHLORIDE] ?
5.96 µM (inactive)

----------
# Test system: UO-31
# methodNotes: NCI tumour cell line growth inhibition, 48 h
The source made the active and inactive calls. Cut-off read from the data, not from the text of the source: active = GI50 up to about 1.1 µM and inactive = higher.
Hi! Could you answer with just one of these? TRUE for active, FALSE for inactive

Field: outcome | Entry: CC(C)CCNC(=O)c1ccc(CNC(=O)/C=C/c2ccc3ccccc3c2)cc1
FALSE

Outcome? ClCc1c(-c2ccccc2)nn(-c2ccccc2)c1CCl
FALSE

Kindly provide the recorded test outcome for the following molecule: CCOC(=O)/C=C(/C(=O)OCC)n1cc(C)c(=O)n(Cc2cnnn2COCCOC(C)=O)c1=O
FALSE

Recorded test call requested for O=C(c1ccccc1)c1ccc2c(c1)NC(=O)c1ccccc1SSc1ccccc1C(=O)N2
FALSE

How did this test come out for Cn1ccnc1SC(F)(F)c1nc2ccccc2o1 ?
FALSE

Hi, do you know how CCOC(=O)/C=C/[C@H](O)[C@@H](O)/C=C/C(=O)OCC came out in this test?
FALSE

Please state the recorded outcome for this molecule: Cc1nc(C)c(Cc2ccccc2)o1
FALSE

Short answer needed: outcome of this test for Cc1cc(OCc2nc(N)nc(N)c2-c2ccc(Cl)c(Cl)c2)ccc1[N+](=O)[O-] ?
TRUE

Record request — test call for O=CN/C=C\c1cc(O)ccc1O
FALSE

Test call, this molecule: Cc1cc(=O)oc2cc(OCc3c(F)cccc3Cl)ccc12
FALSE

Per the records of this test, what outcome belongs to O=C(CC(C(=O)c1ccco1)c1ccsc1)c1ccco1 (stereo unspecified) ?
FALSE

----------
# Tested on: SNB-75
# methodNotes: NCI tumour cell line growth inhibition, 48 h
Activity calls are given as the source filed them. Rule as the data show it: active = GI50 up to about 1.1 µM and inactive = higher.
resultType: GI50

{"molecule": "CN(C)C1(c2cc3ccccc3s2)CCCCC1", "GI50": "32.6 µM (inactive)"}
{"molecule": "CCOC(=O)N1CCN(C(=O)Nc2cccc3ccccc23)CC1", "GI50": "> 10 µM (inactive)"}

Form field: GI50 recorded for CC(Br)C(=O)c1ccc2cc(Br)c3ccccc3c2c1 (configuration not stated) with SNB-75 (enter value)
15.2 µM (inactive)

Lookup: GI50 / SNB-75 / Cc1cc(=O)oc2cc(OCc3c(F)cccc3Cl)ccc12
9.02 µM (inactive)

Hello, I am looking for reported GI50 with SNB-75 for COc1ccccc1-c1nc[nH]c1-c1ccccc1OC . Could you help?
14.6 µM (inactive)

State its GI50 on SNB-75: COc1ccccc1/C=C\c1cc(OC)c(OC)c(OC)c1
10.7 µM (inactive)

Provide value of GI50 for this record tested with SNB-75: COc1ccc2oc(=O)c(-c3nc4ccccc4o3)cc2c1
55.1 µM (inactive)

So what GI50 did Oc1cc(O)c(Oc2cccc(O)c2O)c(O)c1 get with SNB-75?
45.8 µM (inactive)

Request - read-out GI50 | tested on SNB-75 | molecule NC(C(F)(F)F)(C(F)(F)F)P(=O)(Cc1ccccc1)Cc1ccccc1
55.6 µM (inactive)

Lab note: need GI50 with SNB-75 for entry COc1cc(/C=C/C(=O)O)ccc1C(=O)O/C=C/c1ccccc1 , please look it up.
67 µM (inactive)

Quick check: GI50 on SNB-75, item C[N+]1(C)CCCC(C#N)(c2ccccc2)CC1 (configuration not stated) ?
> 100 µM (inactive)

Tell me reported GI50 for COC(=O)c1ccccc1C1CN=NC12Cc1cc(C)ccc1C2=O (configuration not stated) , tested with SNB-75.
71 µM (inactive)

----------
Listed molecules paired with reported GI50
# Test system: COLO 205
# methodNotes: NCI tumour cell line growth inhibition, 48 h
Calls of active or inactive are those of the source. Rule as the data show it: active = GI50 up to about 1.1 µM and inactive = higher.

Some entries whose results are on file:
{"molecule": "N/C(=N\\O)N/N=C/c1cc(I)cc(I)c1O", "GI50": "27 µM (inactive)"}
{"molecule": "CCCCC1(OC(=O)CCC(=O)O)CCC2(CCC(C)C(C/C=C(C)/C=C/C(O)C(C)/C=C/C(=O)O)O2)OC1CC/C(C)=C/C(=O)O (stereo not given)", "GI50": "16.6 µM (inactive)"}
{"molecule": "CC1(C)OC(=O)C(Cc2ccccc2)(Cc2ccccc2)C(=O)O1", "GI50": "> 100 µM (inactive)"}
{"molecule": "N#CS/C(Cl)=C(/C(Cl)=C(Cl)Cl)[N+](=O)[O-]", "GI50": "30.5 µM (inactive)"}
{"molecule": "COc1cc(CC(=O)c2ccc3c(c2)OCO3)cc(OC)c1OC", "GI50": "> 100 µM (inactive)"}

Could you now consider this next molecule?
Give its GI50 value. Item: COC(=O)/C(=C\Nc1cccc(C)n1)S(=O)(=O)c1ccc(C)cc1
22.2 µM (inactive)

----------
# Tested on: IGROV-1
# methodNotes: NCI tumour cell line growth inhibition, 48 h
Calls of active or inactive are those of the source. Rule as the data show it: active = GI50 up to about 1.1 µM and inactive = higher.
resultType: GI50

Take a look at these entries with their results.
{"compound": "O=c1[nH]/c(=C/c2ccc(OCc3ccccc3)cn2)c(=O)[nH]/c1=C/c1ccc([N+](=O)[O-])cc1", "GI50": "> 100 µM (inactive)"}
{"compound": "Clc1cccc(-c2nc3cccc4c3n2Cc2ncccc2-4)c1", "GI50": "54.3 µM (inactive)"}
{"compound": "O=C1CCCCC1C(O)(C(F)(F)F)C(F)(F)Cl (stereo unspecified)", "GI50": "> 10 µM (inactive)"}

Which value of GI50 has been reported for CC(CO)CCNc1ncnc2c1ncn2CCC(=O)OC(C)(C)C (stereo unspecified) in the records?
> 100 µM (inactive)

// query GI50 value for entry COc1ccc(C2SCC(=O)N2NC(=O)C(C)Oc2ccccc2Cl)cc1 (stereo unspecified)
56.2 µM (inactive)

I am curious: what GI50 value has been reported for S=C(Nc1cccc(Cl)c1)Nc1ccccn1 ?
> 100 µM (inactive)

Please give the measured GI50 for this compound: CCOC(=O)/C=C/[C@H](O)[C@@H](O)/C=C/C(=O)OCC
30.7 µM (inactive)

Please give the measured GI50 for this compound: COc1cc(O)c2c(c1)OCC(Cc1ccc(O)cc1)C2=O (stereo unspecified)
> 100 µM (inactive)

# get_value(readout='GI50', item= CC1(C)CC(=O)C(Cc2ccccc2)(Cc2ccccc2)C(=O)C1 )
> 100 µM (inactive)

Quick one: GI50 of COc1ccccc1/C=C\c1cc(OC)c(OC)c(OC)c1 ?
6.41 µM (inactive)

Fill blank: measured GI50 of the compound CCN(CC)CCC1(C2CCCCC2)CCC(=O)NC1=O (stereo unspecified) is ____.
> 100 µM (inactive)

----------
# Tested on: NCI-H23
# methodNotes: NCI tumour cell line growth inhibition, 48 h
The source made the active and inactive calls. No stated cut-off is given here; in the data, active = GI50 up to about 1.1 µM and inactive = higher.
Hello, when you answer, please use one of the following outcomes: active, inactive

# count of solved cases: 3
{"compound": "CC1=C(C(=O)CC(=O)C(=O)Nc2cccc(C)c2C)Sc2ccccc2N1", "targetSystem": "NCI-H23", "className": "inactive"}
{"compound": "Cn1c(=O)c(C(c2ccc([N+](=O)[O-])cc2)c2c(O)c3ccccc3n(C)c2=O)cc2ccccc21 (stereo not given)", "targetSystem": "NCI-H23", "className": "inactive"}
{"compound": "COc1cc(O)c2c(c1)OCC(Cc1ccc(O)cc1)C2=O (stereo not given)", "targetSystem": "NCI-H23", "className": "inactive"}

Which outcome did this test record for the compound Cc1[nH]c(=O)nc(N/N=C/c2ccc(Cl)cc2)c1C(=O)Nc1ccc(Cl)cc1 ?
inactive

Call for entry O=C(CCc1nnc2s/c(=C\c3ccccc3)c(=O)n12)Nc1cc(Cl)ccc1Cl :
inactive

What was the test verdict on Cc1ccc2nc3c(C)c(Cl)c(=O)cc-3sc2c1 ?
inactive

Outcome? CC1(C)CCCCCCCCCC2CC2CCC(C)(C)C1=O (stereo not given)
inactive

Can you look up the reported call for COc1cc2c(cc1O)[C@@H]1Cc3c(cc(OC)c(OC)c3Oc3cc4c(cc3OC)CCN(C)[C@@H]4Cc3ccc(O)cc3)[C@H](C2)N1C for me?
inactive

# fetch the recorded call for OCC(CO)CC1COc2ccccc2O1 (stereo not given) here
inactive

I would be grateful if you could indicate the recorded call for CCCCCCCCCCC[N+]1(Cc2ccccc2)CC2CCN(Cc3ccccc3)CC2C1 (stereo not given) .
active
